Assay: chemical genetic growth profiling, strain panel (AID 1159580);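 also: tested at 20 µM; growth read once vehicle control cultures reached saturation at 30 °C; 1 = growth at the plate median or of vehicle wells; lower values mean less growth of the strain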
Conditions: S. cerevisiae deletion strains, growth OD, locus YHR027C, strain rpn1, active compounds read low
In all, about 5,500 compounds went through this assay and about 2,000 (36%) were called active. Not shown: some 18% with an inconclusive outcome. The list shows a part of the results.
Recorded normalized growth for the following molecules

N=C(N)SCCN
1.01 (inactive)

Task: Item under review: O=C(Nc1ccc(C(=O)O)c(O)c1)c1ccccc1 . Reported normalized growth?
Result: 0.964 (inactive)

Task: Try the molecule Cc1ccc(S(=O)(=O)NC(=O)NN2CC3CCCC3C2)cc1 (stereo not given)
Result: 0.983 (inactive)

Task: Try the molecule COC(=O)Nc1nc2ccc(S(=O)c3ccccc3)cc2[nH]1 (stereo not given)
Result: 0.989 (inactive)

Task: Try the molecule C#C[C@]1(OC(C)=O)CCC2C3CCC4=CC(=O)CC[C@@H]4C3CC[C@@]21C (stereo not given in full)
Result: 1.01 (inactive)

Task: Try the molecule Nc1ccc(S(=O)(=O)Nc2cnc3ccccc3n2)cc1
Result: 1.01 (inactive)

Task: Try the molecule CC1(C)CC[C@]2(C)CC[C@]3(C)C(=CCC4[C@@]5(C)CC[C@H](O)C(C)(C)C5CC[C@]43C)C2C1 (stereo not given in full)
Result: 0.977 (inactive)

Task: Try the molecule CC1(C)CC[C@]2(C(=O)O)CC[C@]3(C)C(=CCC4[C@@]5(C)CC[C@@H](O)C(C)(C)C5CC[C@]43C)C2C1 (stereo not given in full)
Result: 1.02 (inactive)

Task: Try the molecule COC(=O)C[C@H]1C(C)(C)C2(O)OC34CC2C(=O)[C@]1(C)C3CC[C@]1(C)C4=CC(=O)O[C@H]1c1ccoc1 (stereo not given in full)
Result: 0.99 (inactive)

Task: Try the molecule COC(=O)Nc1nc2ccc(C(=O)c3ccccc3)cc2[nH]1
Result: 0.931 (inactive)

###

Experiment: chemical genetic growth profiling, strain panel (AID 1159580);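 also: tested at 20 µM; growth read once vehicle control cultures reached saturation at 30 °C; 1 = growth at the plate median or of vehicle wells; lower values mean less growth of the strain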
Conditions: S. cerevisiae deletion strains, growth OD, locus YAL021C, strain ccr4
In all, about 5,500 compounds went through this assay and about 2,000 (36%) were called active. Another 18% or so got no clear call; they are omitted. Cut-off read from the data, not from the text of the source: active = normalized growth mostly below about 0.91 (no sharp cut-off); inconclusive = no clear call, values can overlap the other calls; inactive = mostly above about 0.92. The list shows a part of the results.
Would you mind answering with one of these outcomes? T (active), F (inactive)

Solved cases below.
CNC(=O)O/N=C\C(C)(C)SC
F
CCOP(=S)(OCC)Oc1nc(Cl)c(Cl)cc1Cl
F
C/C=C(/C)C(=O)OC1CCC2(C)C3CCC4C5(O)CC(O)C6(O)C(CN7CC(C)CCC7C6(C)O)C5(O)CC42OC13O (stereo not drawn)
F
COc1cccc2c1C(=O)c1c(O)c3c(c(O)c1C2=O)C[C@@](O)(C(=O)CO)C[C@@H]3O[C@H]1C[C@H](N)[C@@H](O)[C@H](C)O1
T
CCOc1ccc2nc3cc(N)ccc3c(N)c2c1
T

We next turn to a different compound, shown below.
Task: How was Nc1c2ccccc2nc2ccccc12 classified in this test?
Result: T

###

Test: chemical genetic growth profiling, strain panel (AID 1159580);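 also: tested at 20 µM; growth read once vehicle control cultures reached saturation at 30 °C; 1 = growth at the plate median or of vehicle wells; lower values mean less growth of the strain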
Conditions: S. cerevisiae deletion strains, growth OD, locus YLL041C, strain sdh2, active compounds read low
Hit rate of the full screen: of about 5,500 compounds, about 2,000 (36%) were called active. About 18% were inconclusive and are not listed. The list shows a part of the results.
Recorded normalized growth for the following compounds

Task: Item under review: COc1cccc2c1C(=O)c1c(O)c3c(c(O)c1C2=O)C[C@@](O)(C(=O)CO)C[C@@H]3O[C@H]1C[C@H](N)[C@@H](O)[C@H](C)O1 . Reported normalized growth?
Result: 0.918 (active)
